# targetOrTestSystem: T1, 人IL-18Rβ蛋白 (IL-18Rβ antigen) (human)
# T1 chain: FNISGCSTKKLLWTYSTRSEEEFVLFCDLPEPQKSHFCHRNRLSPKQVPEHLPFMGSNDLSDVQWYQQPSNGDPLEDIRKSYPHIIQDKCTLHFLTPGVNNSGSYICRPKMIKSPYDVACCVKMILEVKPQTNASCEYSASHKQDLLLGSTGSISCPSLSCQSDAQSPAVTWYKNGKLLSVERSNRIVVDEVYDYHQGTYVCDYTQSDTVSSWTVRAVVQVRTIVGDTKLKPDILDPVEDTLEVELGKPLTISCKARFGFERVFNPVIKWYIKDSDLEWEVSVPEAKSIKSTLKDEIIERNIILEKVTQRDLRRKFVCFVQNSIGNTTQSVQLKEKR
# testDescription: SPR (Biacore 8K), secreted Fab captured on SASA sensor, antigen injected, 1:1 fit
quantityName: koff (s⁻¹)
Response body: numeric value in s⁻¹, unit text excluded.

binder	koff (s⁻¹)
A040 Fab clone (Fab, V domains shown) VH: EVQLVESGGGLVQPGGSLRLSCAASGLNLYYSSMHWVRQAPGKGLEWVASIYSSNGRTYYADSVKGRFTISADTSKNTAYLQMNSLRAEDTAVYYCARSSFSHGYGWYGLDYWGQGTLVTVSS VL: DIQMTQSPSSLSASVGDRVTITCRASQSVSSAVEWYQQKPGKAPKLLIYSASSLYSGVPSRFSGSRSGTDFTLTISSLQPEDFATYYCQQYGYHDAGLITFGQGTKVEIK	8e-05

Exercise: Field request: koff | item: A037 Fab clone (Fab, V domains shown, Mutations against C056-WT: VL-S31F/VL-A34D/VH-F27L) VH: EVQLVESGGGLVQPGGSLRLSCAASGLNLYYSSMHWVRQAPGKGLEWVASIYSSNGRTYYADSVKGRFTISADTSKNTAYLQMNSLRAEDTAVYYCARSSFSHGYGWYGLDYWGQGTLVTVSS VL: DIQMTQSPSSLSASVGDRVTITCRASQSVSFAVDWYQQKPGKAPKLLIYSASSLYSGVPSRFSGSRSGTDFTLTISSLQPEDFATYYCQQYGYHDAGLITFGQGTKVEIK
Solution: 1e-06

Exercise: Can you check A038 Fab clone (Fab, V domains shown, Mutations against C056-WT: VL-A34E/VH-F27I) VH: EVQLVESGGGLVQPGGSLRLSCAASGINLYYSSMHWVRQAPGKGLEWVASIYSSNGRTYYADSVKGRFTISADTSKNTAYLQMNSLRAEDTAVYYCARSSFSHGYGWYGLDYWGQGTLVTVSS VL: DIQMTQSPSSLSASVGDRVTITCRASQSVSSAVEWYQQKPGKAPKLLIYSASSLYSGVPSRFSGSRSGTDFTLTISSLQPEDFATYYCQQYGYHDAGLITFGQGTKVEIK next?
Solution: 5.67e-05
